tested_target: Avi-KRAS G12D (1-169) GppNHp/RAF1 RBD-3xFLAG (52-151) (Homo sapiens, UniProt P01116, G12D)
Construct: Avi-KRAS G12D (1-169)
Sequence (P01116 1-169 isoform P01116-2 G12D): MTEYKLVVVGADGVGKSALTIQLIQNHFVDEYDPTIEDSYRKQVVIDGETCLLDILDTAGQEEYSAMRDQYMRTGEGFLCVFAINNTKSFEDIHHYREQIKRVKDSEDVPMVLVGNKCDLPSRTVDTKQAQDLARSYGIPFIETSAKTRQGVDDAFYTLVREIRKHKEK
assay_remarks: Raf1-KRAS G12D-GppNHP disruption HTRF assay (Biological Example 1)
Format: binding
test_settings: KRAS G12D-GppNHp/RAF1 RBD HTRF
pIC50: −log10 of the molar value.
Catalogue of pIC50 readings, one per entry.

Give the value of pIC50 reported for the following: CCN(c1nc(OC[C@@]23CCCN2C[C@H](F)C3)nc2c(F)c(-c3ccc(F)c4sc(N)c(C#N)c34)c(C(F)(F)F)cc12)[C@H]1C[C@@H](C)N(C(C)=O)C1
> 7.00

Give the value of pIC50 reported for the following: CCN(c1nc(OC[C@@]23CCCN2C[C@H](F)C3)nc2c(F)c(-c3ccc(F)c4sc(N)c(C#N)c34)c(C(F)(F)F)cc12)[C@@H]1C[C@H](C)N(C(C)=O)C1 (atropisomer, axis not shown)
6.00 to 7.00

Give the value of pIC50 reported for the following: CCC(=O)N1CC[C@@H](N(C)c2nc(OC[C@@]34CCCN3C[C@H](F)C4)nc3c(F)c(-c4ccc(F)c5sc(N)c(C#N)c45)c(C(F)(F)F)cc23)[C@H]1C (atropisomer, axis not shown)
> 7.00

Give the value of pIC50 reported for the following: N#Cc1c(N)sc2c(F)ccc(-c3c(C(F)(F)F)cc4c(N5C[C@H]6C[C@@H]5CO6)nc(OC[C@@]56CCCN5C[C@H](F)C6)nc4c3F)c12 (single isomer, unassigned) [Compound 288]
< 5.00

Give the value of pIC50 reported for the following: N#Cc1c(N)sc2c(F)ccc(-c3c(C(F)(F)F)cc4c(N5CCCC[C@@H](O)C5)nc(OC[C@@]56CCCN5C[C@H](F)C6)nc4c3F)c12
> 7.00

Give the value of pIC50 reported for the following: CN(c1nc(OC[C@@]23CCCN2C[C@H](F)C3)nc2c(F)c(-c3ccc(F)c4sc(N)c(C#N)c34)c(C(F)(F)F)cc12)[C@@H]1C[C@@H]2COC(=O)N2C1
6.00 to 7.00

Give the value of pIC50 reported for the following: CCN(c1nc(OC[C@@]23CCCN2C[C@H](F)C3)nc2c(F)c(-c3ccc(F)c4sc(N)c(C#N)c34)c(C(F)(F)F)cc12)[C@H]1CCN(C(=O)C(C)C)C1 (single isomer, unassigned) [Compound 469]
> 7.00

###

tested_target: Avi-KRAS G12D (1-169) GppNHp/RAF1 RBD-3xFLAG (52-151) (Homo sapiens, UniProt P01116, G12D)
Construct: Avi-KRAS G12D (1-169)
assay_remarks: Raf1-KRAS G12D-GppNHP disruption HTRF assay (Biological Example 1)
Type: binding
test_settings: KRAS G12D-GppNHp/RAF1 RBD HTRF
measurement_label: IC50

1. CCN(c1nc(OC[C@@]23CCCN2C[C@H](F)C3)nc2c(F)c(-c3ccc(F)c4sc(N)c(C#N)c34)c(C(F)(F)F)cc12)[C@H]1CCN(C(=O)OC)C1 (atropisomer, axis not shown) [Compound 541]	< 100 nM
2. C[C@H]1CC[C@@H](O)CN1c1nc(OC[C@@]23CCCN2C[C@H](F)C3)nc2c(F)c(-c3ccc(F)c4sc(N)c(C#N)c34)c(C(F)(F)F)cc12	100 to 1000 nM
3. C[C@@H]1[C@H](N(C)c2nc(OC[C@@]34CCCN3C[C@H](F)C4)nc3c(F)c(-c4ccc(F)c5sc(N)c(C#N)c45)c(Cl)cc23)CCN1C(=O)C(C)(F)F	1000 to 10000 nM
4. CC(C)C(=O)N1C[C@@H](N(C)c2nc(OC[C@@]34CCCN3C[C@H](F)C4)nc3c(F)c(-c4ccc(F)c5sc(N)c(C#N)c45)c(C(F)(F)F)cc23)C[C@H]1C	100 to 1000 nM

Give the value of IC50 reported for the following: CNC(=O)N1CC[C@@H](N(C)c2nc(OC[C@@]34CCCN3C[C@H](F)C4)nc3c(F)c(-c4ccc(F)c5sc(N)c(C#N)c45)c(C(F)(F)F)cc23)[C@H]1C
100 to 1000 nM
